These entries and their values trace back to patent US20190367619A1.

TEST TARGET: T1, human galectin-10-His (recombinant human galectin-10 with TEV-cleavable N-terminal His-tag) (human)
T1 construct: SEC-MALLS: dimer in solution; also called Gal10-His; humanGal10-His
T1 chain: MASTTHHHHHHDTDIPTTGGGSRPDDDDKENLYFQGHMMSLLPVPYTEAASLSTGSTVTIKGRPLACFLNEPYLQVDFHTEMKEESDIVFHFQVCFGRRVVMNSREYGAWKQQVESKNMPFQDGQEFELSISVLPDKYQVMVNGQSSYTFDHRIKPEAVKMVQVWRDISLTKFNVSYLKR
TEST: SPR Biacore T3000, scFv-hFc captured by anti-human Fc, galectin-10-His as analyte

BINDER	Kd
5E12 scFv-human Fc (Fc fusion, about 100 kDa on SDS-PAGE; also called 5E12 ScFv-hFc; not shown: CH2-CH3 constant domains of human IgG1 (vector pUPEX50)) scFv: QLQLVESGGGLVQPGGSLRLSCVASGFTFRNYPMTWVRQAPGKGPEWVSAINGGGDIPYYADSVKGRFTISRDNAKNTVYLQMDSLKPEDTAMYYCAKQKWGYDPRRTDFEFRGQGTQVTVSSGGGGSGGGGSGGGGSETVPTQSPSSVTASVGEKVTITCKSSQSVRIESNHKTYLNWYQQRPGRGPRLLIYDASSRESGIPDRFSGSGSTSDFTLTISSVQPEDAAVYYCQQAYAAPTFGQGTKLEIK	4.73 nM
6F05 scFv-human Fc (Fc fusion, about 100 kDa on SDS-PAGE; also called 6F5; 6F05 ScFv-hFc; not shown: CH2-CH3 constant domains of human IgG1 (vector pUPEX50)) scFv: QLQLVESGGGLVQPGGSLRLSCAASGFTFSSYAMSWVRQAPGKGLEWVSAINSGGGSTSYADSVKGRFTISRDNAKNTLYLQMNSLKPEDTAVYYCATPGDRLWYYRYDYWGQGTQVTVSSGGGGSGGGGSGGGGSQAGLTQPPSVSGTLGKAVTISCAGTSSDIGYGNYVSWYQQLPGTAPKLLIYKVSRRASGVPDRFSGSKSGNTASLSISGLQSEDEADYYCASYRYRNNVVFGGGTHLTVL	0.918 nM
4B10 scFv-human Fc (Fc fusion, about 100 kDa on SDS-PAGE; also called 4B10 ScFv-hFc; not shown: CH2-CH3 constant domains of human IgG1 (vector pUPEX50)) scFv: QLQLVESGGGLVQPGGSLRLSCAASGFTFSNYWMYWVRQAPGKGLEWVSAIDVGGGTTDYAGSVKGRFTISRDNTKSTVYLQMNTLKPEDTALYYCLRGGSYYGGMDYWGKGTLVTVSSGGGGSGGGGSGGGGSQSALTQPSAVSVSLGQTARITCQGAKLGRYYGIWYQQKPGQAPVQVIYGDSNRPSGIPERFSGSSSGGTATLTISGAQAEDEADYYCQSYESSTSPVFGGGTHLTVL	1.94 nM
